# Tested on: LU-65 (Non-Small Cell Lung Carcinoma)
# procedure_details: combination Emax (second highest fraction inhibited in the dose matrix, 72 h); higher = more inhibition; extreme values may be limits of the assay
# maps each entry to its combination Emax

Observe how each entry below is paired with its result.
Exercise: Give the measured combination Emax of CN(CCO)CC[C@H](CSc1ccccc1)Nc1ccc(S(=O)(=O)NC(=O)c2ccc(N3CCC([C@@H](O)c4ccccc4-c4ccc(Cl)cc4)CC3)cc2)cc1S(=O)(=O)C(F)(F)F [AZD4320] + C[C@@H]1COCCN1C2=NC(=NC(=C2)C3(CC3)[S@](=N)(=O)C)C4=C5C=CNC5=NC=C4 [AZD6738] (first compound max 1 µM, 7x7, partner max 10 µM) .
Solution: 0.781

Exercise: And the next one, O=C(c1cc(Cc2n[nH]c(=O)c3ccccc23)ccc1F)N1CCN(C(=O)C2CC2)CC1 [Olaparib] + CC1(C)CCC(CN2CCN(c3ccc(C(=O)NS(=O)(=O)c4ccc(NCC5CCOCC5)c([N+](=O)[O-])c4)c(Oc4cnc5[nH]ccc5c4)c3)CC2)=C(c2ccc(Cl)cc2)C1 [Venetoclax] (first compound max 10 µM, 7x7, partner max 1 µM) ?
Solution: 0.164

Exercise: Next record, please: COc1cc2ncnc(Nc3ccc(F)c(Cl)c3)c2cc1OCCCN1CCOCC1 [Gefitinib] + CC(C)n1c(=O)n(C)c2cnc3cc(F)c(-c4ccc(OCCCN5CCCCC5)nc4)cc3c21 [AZD1390] (first compound max 10 µM, 7x7, partner max 0.3 µM)
Solution: 0.268

Exercise: Please answer likewise for NC1(C(=O)N[C@@H](CCO)c2ccc(Cl)cc2)CCN(c2ncnc3[nH]ccc23)CC1 [Capivasertib] + COc1nnc2ccc(N3CCC(c4ccc(OCCN5CCN(C)C(=O)[C@H]5C)cc4)CC3)nn12 [AZD5153] (first compound max 10 µM, 7x7, partner max 1 µM)
Solution: 0.536

Exercise: Can you handle CC(=O)Nc1cccc(-n2c(=O)n(C3CC3)c(=O)c3c(Nc4ccc(I)cc4F)n(C)c(=O)c(C)c32)c1 [Trametinib] + Cc1nc(-c2cn3c(n2)-c2ccc(-c4cnn(C(C)(C)C(N)=O)c4)cc2OCC3)n(C(C)C)n1 [Taselisib] (first compound max 1 µM, 7x7, partner max 10 µM) next?
Solution: 0.985

Exercise: What about this molecule? NC1(C(=O)N[C@@H](CCO)c2ccc(Cl)cc2)CCN(c2ncnc3[nH]ccc23)CC1 [Capivasertib] + C[C@@H]1COCCN1C2=NC(=NC(=C2)C3(CC3)[S@](=N)(=O)C)C4=C5C=CNC5=NC=C4 [AZD6738] (first compound max 10 µM, 7x7, partner max 10 µM)
Solution: 0.632

Exercise: Also check C[C@@H](Oc1cc(-c2cnn(C3CCNCC3)c2)cnc1N)c1c(Cl)ccc(F)c1Cl [Crizotinib] + CC1=C(C(=CC=C1)Cl)NC(=O)C2=CN=C(S2)NC3=CC(=NC(=N3)C)N4CCN(CC4)CCO [Dasatinib] (first compound max 10 µM, 7x7, partner max 2 µM)
Solution: 0.852

Pending molecule:
Exercise: Returns the measured combination Emax for the input molecule. Input: Cc1c2c(nn1C)CSCc1cc(n(C)n1)CSc1cc(c3ccccc3c1)OCCCc1c(C(=O)O)n(C)c3c-2c(Cl)ccc13 [AZD5991] + C[C@@H](Nc1cc(F)cc(F)c1)c1cc(C(=O)N(C)C)cc2c(=O)cc(N3CCOCC3)oc12 [AZD8186] (first compound max 1 µM, 7x7, partner max 3 µM)
Solution: 0.449
